# System: KM12
# test.method.notes: Cell proliferation assay (CellTiter-Glo, 96 h), KM12
# Format: cell-based
# condition.description: Homo sapiens, 96-hour incubation
Exercise: state measured pIC50 for each of the compounds provided.
Notebook: values listed as pIC50 are -log10 of the concentration (mol/L).

Value lookup for pIC50; key = O=C1N[C@]2(CC[C@@H](OCC(F)(F)F)CC2)C(O)=C1c1cc(-c2ccc(Cl)cc2)ccc1Cl
6.88

Also check Cc1ccc(-c2ccc(F)c(F)c2)cc1C1=C(O)[C@]2(CC[C@H](C(F)(F)F)CC2)NC1=O
7.13

Can you check Cc1ccc(-c2ccc(Cl)cc2)cc1C1=C(O)C2(CCCCC2)NC1=O next?
7.10

Also, CO[C@H]1CC[C@]2(CC1)NC(=O)C(c1cc(-c3ccc(Cl)cc3)ccc1Cl)=C2O please.
6.15

Entry to check: CO[C@H]1CC[C@]2(CC1)NC(=O)C(c1cc(-c3ccc(Cl)c(F)c3)ccc1C)=C2O
6.56

Another compound: COC[C@H]1CC[C@]2(CC1)NC(=O)C(c1cc(-c3ccc(F)c(F)c3)ccc1C)=C2O
6.76

###

Parameter IC50, tested on acetyl-CoA carboxylase 2 (ACC2) (Homo sapiens), listed per item.
Sequence (O00763 39-2458 limits assumed): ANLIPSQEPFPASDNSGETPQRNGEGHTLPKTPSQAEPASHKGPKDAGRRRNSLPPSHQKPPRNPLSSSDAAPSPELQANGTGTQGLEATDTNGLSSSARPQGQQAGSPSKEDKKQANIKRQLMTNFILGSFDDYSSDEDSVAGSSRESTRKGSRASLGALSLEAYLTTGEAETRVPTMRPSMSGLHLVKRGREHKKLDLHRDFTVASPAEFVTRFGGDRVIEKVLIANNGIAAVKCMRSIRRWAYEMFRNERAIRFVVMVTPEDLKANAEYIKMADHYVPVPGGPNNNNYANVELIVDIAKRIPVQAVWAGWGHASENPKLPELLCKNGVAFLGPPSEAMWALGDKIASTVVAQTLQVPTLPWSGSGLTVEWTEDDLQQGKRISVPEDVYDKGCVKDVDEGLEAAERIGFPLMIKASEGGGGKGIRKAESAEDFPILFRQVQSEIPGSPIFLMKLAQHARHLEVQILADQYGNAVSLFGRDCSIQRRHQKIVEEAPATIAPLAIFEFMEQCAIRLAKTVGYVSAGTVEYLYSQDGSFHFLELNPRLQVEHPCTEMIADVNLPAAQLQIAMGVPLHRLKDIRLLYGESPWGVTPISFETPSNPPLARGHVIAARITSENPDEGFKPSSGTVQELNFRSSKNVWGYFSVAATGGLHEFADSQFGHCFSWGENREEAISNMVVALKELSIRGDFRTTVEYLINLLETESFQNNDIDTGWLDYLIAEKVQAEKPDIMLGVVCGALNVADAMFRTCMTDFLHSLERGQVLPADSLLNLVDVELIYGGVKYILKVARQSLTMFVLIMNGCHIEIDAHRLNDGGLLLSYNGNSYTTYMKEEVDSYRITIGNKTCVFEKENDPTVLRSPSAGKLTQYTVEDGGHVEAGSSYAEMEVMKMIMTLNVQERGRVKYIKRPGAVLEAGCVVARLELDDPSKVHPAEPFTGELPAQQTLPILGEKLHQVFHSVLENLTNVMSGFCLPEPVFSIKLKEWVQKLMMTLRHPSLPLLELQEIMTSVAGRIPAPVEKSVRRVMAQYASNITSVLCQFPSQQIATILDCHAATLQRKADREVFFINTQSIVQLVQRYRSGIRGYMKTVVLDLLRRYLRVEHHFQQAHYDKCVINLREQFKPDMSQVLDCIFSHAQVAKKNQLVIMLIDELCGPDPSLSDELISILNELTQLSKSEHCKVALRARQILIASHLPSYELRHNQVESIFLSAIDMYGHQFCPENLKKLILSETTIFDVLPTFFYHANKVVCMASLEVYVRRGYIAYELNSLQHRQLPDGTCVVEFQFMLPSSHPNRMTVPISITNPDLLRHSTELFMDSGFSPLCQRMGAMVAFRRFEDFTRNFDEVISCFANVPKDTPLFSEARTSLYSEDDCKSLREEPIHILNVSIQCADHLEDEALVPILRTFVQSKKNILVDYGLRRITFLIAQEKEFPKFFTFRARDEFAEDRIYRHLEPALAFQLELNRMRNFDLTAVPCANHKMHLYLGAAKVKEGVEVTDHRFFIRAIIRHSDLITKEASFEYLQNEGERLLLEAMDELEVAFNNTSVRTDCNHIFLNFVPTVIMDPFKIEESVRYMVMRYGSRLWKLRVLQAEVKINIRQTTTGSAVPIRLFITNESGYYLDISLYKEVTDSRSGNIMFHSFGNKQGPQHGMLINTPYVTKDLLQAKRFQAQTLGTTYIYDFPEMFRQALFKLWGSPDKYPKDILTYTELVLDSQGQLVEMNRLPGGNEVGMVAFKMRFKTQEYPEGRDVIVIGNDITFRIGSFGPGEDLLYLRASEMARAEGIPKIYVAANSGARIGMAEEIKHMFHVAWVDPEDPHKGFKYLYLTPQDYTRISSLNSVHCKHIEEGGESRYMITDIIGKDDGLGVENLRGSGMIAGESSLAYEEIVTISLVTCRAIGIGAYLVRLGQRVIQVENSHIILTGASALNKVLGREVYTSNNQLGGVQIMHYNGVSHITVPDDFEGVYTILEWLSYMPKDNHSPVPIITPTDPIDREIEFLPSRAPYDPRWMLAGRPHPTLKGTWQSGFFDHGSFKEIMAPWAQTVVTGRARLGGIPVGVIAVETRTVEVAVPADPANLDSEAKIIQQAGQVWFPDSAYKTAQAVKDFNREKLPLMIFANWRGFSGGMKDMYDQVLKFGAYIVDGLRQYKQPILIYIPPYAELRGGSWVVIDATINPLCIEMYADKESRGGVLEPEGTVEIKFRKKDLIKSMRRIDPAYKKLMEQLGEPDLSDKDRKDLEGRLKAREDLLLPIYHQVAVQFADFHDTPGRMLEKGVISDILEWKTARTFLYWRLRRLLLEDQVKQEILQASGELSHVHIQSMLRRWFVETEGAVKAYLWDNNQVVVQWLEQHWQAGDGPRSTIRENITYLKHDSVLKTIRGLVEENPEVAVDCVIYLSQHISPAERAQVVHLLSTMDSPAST
// note: answer is a bare numeric in nM

Dear colleague, I am looking for the recorded IC50 of the following compound: Cc1c(F)cc(-c2ccc(Cl)c(F)c2)cc1C1=C(O)[C@]2(CC[C@H](C(F)(F)F)CC2)NC1=O
2950

How about this compound: CO[C@H]1CC[C@]2(CC1)NC(=O)C(c1cc(-c3ccc(Cl)c(F)c3)ccc1Cl)=C2O
1180

Okay, and Cc1ccc(-c2ccc(F)c(F)c2)cc1C1=C(O)[C@]2(CC[C@@H](C(F)(F)F)CC2)NC1=O ?
9610

Now the same for CO[C@H]1CC[C@]2(CC1)NC(=O)C(c1cc(-c3ccc(Cl)cc3)ccc1Cl)=C2O
1280

// query: CO[C@H]1CC[C@]2(CC1)NC(=O)C(c1cc(-c3ccc(Cl)cc3)c(F)cc1C)=C2O
657

Would you kindly repeat that for Cc1cc(F)c(-c2ccc(Cl)cc2)cc1C1=C(O)C2(CCC(C(F)(F)F)CC2)NC1=O (mixture of isomers) ?
988

###

# tested.target: recombinant human ACC1 (Homo sapiens, UniProt Q13085)
# test.method.notes: Human ACC1 enzyme assay, Assay A1 (HTRF ADP immunoassay);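 also: ADP generated by the enzyme quantified via competitive time-resolved FRET, read as europium cryptate to d2 energy transfer after 1 h at 22 °C with labelled ADP tracer and anti-ADP antibody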
Can you tell me IC50 for the items I'm about to list?

// returns reported IC50 for input O=C1NC2(CCCCC2)C(O)=C1c1cc(-c2ccc(Cl)cc2)ccc1Cl
0.323 µM

Entry Cc1ccc(-c2ccc(F)c(F)c2)cc1C1=C(O)[C@]2(CC[C@H](C(F)(F)F)CC2)NC1=O please
0.195 µM

What about this compound? Cc1ccc(-c2ccc(Cl)c(F)c2)cc1C1=C(O)[C@]2(CC[C@H](C)CC2)NC1=O
0.194 µM

Ok, now Cc1cc(F)c(-c2ccc(Cl)cc2)cc1C1=C(O)[C@]2(CC[C@](O)(C(F)(F)F)CC2)NC1=O
0.216 µM

###

# tested.target: human ACC1 (acetyl-coenzyme A carboxylase alpha transcript variant 1) (Homo sapiens)
# Construct: FLAG (C); made in house; host or cells: baculovirus-infected insect cells (Hi5)
# test.method.notes: Human ACC1 enzyme assay, Assay B1 (ADP-Glo)
# Assay type: biochemical
# condition.description: Assay B1, ADP-Glo; read-out: ACC 1 (=B1) IC50
reported.metric: pIC50
pIC50 is a log-scale quantity: -log10 of the concentration expressed in molar.

Which pIC50 is reported for this compound? COC1CCC2(CC1)OC(=O)C(c1cc(-c3ccc(Cl)cc3)ccc1C)=C2O (centres unmarked) [2-39]
6.79

Again, but for Cc1cc(C)c(-c2ccc(Cl)cc2)c(C)c1C1=C(O)C2(CCCCCC2)OC1=O [2-48]
5.81

Same again, this time with Cc1ccc(-c2ccc(Cl)cc2)cc1C1=C(O)C2(CCC3(CC2)OCCO3)OC1=O [2-15]
6.95

Repeat with Cc1ccc(-c2ccc(Cl)cc2)c(C)c1C1=C(O)C2(CCCCC2)OC1=O [2-4]
6.76

Record: Cc1ccc(-c2ccc(F)c(Cl)c2)cc1C1=C(O)C2(CCCC2)OC1=O [2-23]
5.68

###

Record form. Attribute: log10 IC50. Fill in for each entry.
# tested.target: human ACC1 (acetyl-coenzyme A carboxylase alpha transcript variant 1) (Homo sapiens, UniProt Q13085)
# Construct: FLAG (C); made in house; host or cells: baculovirus-infected insect cells (Hi5)
# test.method.notes: Human ACC1 enzyme assay, Assay B1 (ADP-Glo)
# Format: biochemical
Would you kindly interpret these values as log10 of IC50 expressed in nM?

Query (molecule): CC[C@]1(OC)CC[C@@]2(CC1)NC(=O)C(c1c(C)ccc(-c3ccc(Cl)cc3)c1C)=C2O [1-88] ; field requested: log10 IC50
2.66

Also CO[C@]1(C)CC[C@]2(CC1)NC(=O)C(c1c(C)ccc(-c3ccc(Cl)cc3)c1C)=C2O [1-87] , if possible.
2.58

# repeat for Cc1ccc(-c2ccc(Cl)cc2)c(C)c1C1=C(O)C2(CCOCC2)NC1=O [1-1]
2.39

Same question, CC1(C)CCC2(CC1)NC(=O)C(c1cc(-c3ccc(Cl)cc3)ccc1Cl)=C2O [1-138] this time
2.24

Now the molecule Cc1cc(F)c(-c2ccc(Cl)cc2)cc1C1=C(O)C2(CCC(C(F)(F)F)CC2)NC1=O (mixture of isomers) [1-100]
1.98

Okay, and O=C1C(c2cc(-c3ccc(Cl)c(Cl)c3)ccc2Cl)C(=O)N2CCOCCN12 [8-10] ?
3.37

CO[C@H]1CC[C@]2(CC1)NC(=O)C(c1c(C)ccc(-c3ccc(Cl)cc3)c1C)=C2O [1-121] , same question.
2.24

Field entry: Cc1ccc(-c2ccc(Cl)cc2)cc1C1=C(O)C2(CCC3(CC2)OCCCO3)NC1=O [1-59]
2.42

###

# tested.target: recombinant human ACC1 (Homo sapiens)
# test.method.notes: Human ACC1 enzyme assay, Assay A1 (HTRF ADP immunoassay)
Would you mind sorting the entries by IC50 according to these classes? low band (below 200 nM), middle band (200 nM to below 300 nM), high band (300 nM or more)

State the class of the molecule shown: COC[C@H]1CC[C@]2(CC1)NC(=O)C(c1cc(-c3ccc(Cl)c(F)c3)ccc1Cl)=C2O [1-113]
middle band

Item: Cc1c(F)cc(-c2ccc(F)c(F)c2)cc1C1=C(O)[C@]2(CC[C@H](C(F)(F)F)CC2)NC1=O [1-96]
high band

Please answer likewise for CO[C@H]1CC[C@]2(CC1)NC(=O)C(c1cc(-c3ccc(Cl)c(F)c3)ccc1Cl)=C2O [1-103]
low band

Also Cc1cc(C)c(-c2ccc(Cl)cc2)cc1C1=C(O)C2(CCC(C(F)(F)F)CC2)NC1=O (stereo not shown) [1-97] , if possible.
high band

Same lookup for Cc1cc(F)c(-c2ccc(Cl)cc2)cc1C1=C(O)C2(CCC(C(F)(F)F)CC2)NC1=O (mixture of isomers) [1-100] , please.
low band

And for O=C1N[C@]2(CC[C@@H](C(F)(F)F)CC2)C(O)=C1c1cc(-c2ccc(F)c(F)c2)ccc1Cl [1-99] ?
high band

Consider next the molecule Cc1ccc(-c2ccc(Cl)cc2)cc1C1=C(O)[C@@]2(CCC[C@H](C(F)(F)F)C2)NC1=O [1-133] in the same way.
high band

Again, but for Cc1ccc(-c2ccc(Cl)cc2)c(C)c1C1=C(O)[C@]2(CC[C@](O)(C(F)(F)F)CC2)NC1=O [1-125]
middle band

Let us now turn to CO[C@H]1CC[C@]2(CC1)NC(=O)C(c1cc(-c3ccc(F)c(F)c3)cc(F)c1C)=C2O [1-107]
high band

Field entry: CO[C@H]1CC[C@]2(CC1)NC(=O)C(c1cc(-c3ccc(Cl)cc3)ccc1Cl)=C2O [1-120]
middle band

Same again, this time with Cc1ccc(-c2ccc(Cl)c(F)c2)cc1C1=C(O)[C@]2(CC[C@](O)(C(F)(F)F)CC2)NC1=O [1-123]
low band

What do you get for Cc1ccc(-c2ccc(F)c(F)c2)cc1C1=C(O)C2(CCCCC2)NC1=O [1-115] ?
high band

Next molecule up: COC[C@H]1CC[C@]2(CC1)NC(=O)C(c1cc(-c3ccc(Cl)c(F)c3)ccc1C)=C2O [1-111]
low band

###

# tested.target: acetyl-CoA carboxylase 2 (ACC2) (Homo sapiens);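 also: ADP generated by ACC2 quantified via competitive time-resolved FRET between europium cryptate anti-ADP antibody and d2-tagged ADP, enzyme kept in linear range near 0.6 ng/µl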
Please respond with true (1) when measured IC50 is strictly beneath 3000 nM, and with false (0) in all other cases.

Find out if reported IC50 for Cc1cc(F)c(-c2ccc(Cl)c(F)c2)cc1C1=C(O)C2(CCC(C(F)(F)F)CC2)NC1=O (mixture of isomers) is less than 3000 nM
true (1)

Continue with Cc1ccc(-c2ccc(Cl)c(F)c2)c(C)c1C1=C(O)[C@]2(CC[C@H](C(F)(F)F)CC2)NC1=O
true (1)

What about this compound? CO[C@]1(C)CC[C@]2(CC1)NC(=O)C(c1c(C)ccc(-c3ccc(Cl)cc3)c1C)=C2O
false (0)

Another compound to look at: CCO[C@H]1CC[C@]2(CC1)NC(=O)C(c1cc(-c3ccc(Cl)cc3)ccc1C)=C2O
true (1)

Same for Cc1ccc(-c2ccc(Cl)cc2)c(C)c1C1=C(O)[C@]2(CC[C@H](C(F)(F)F)CC2)NC1=O
true (1)

Now the compound CO[C@H]1CC[C@]2(CC1)NC(=O)C(c1cc(-c3ccc(Cl)c(F)c3)cc(F)c1C)=C2O
false (0)

Try this compound next: Cc1cc(F)c(-c2ccc(Cl)cc2)cc1C1=C(O)[C@]2(CC[C@](O)(C(F)(F)F)CC2)NC1=O
false (0)

Another compound to look at: Cc1ccc(-c2ccc(Cl)cc2)cc1C1=C(O)[C@]2(CC[C@H](CO)CC2)NC1=O
true (1)

Next record, please: Cc1ccc(-c2ccc(Cl)c(F)c2)c(C)c1C1=C(O)[C@]2(CC[C@](O)(C(F)(F)F)CC2)NC1=O
false (0)

Please answer likewise for CC(C)[C@H]1CC[C@]2(CC1)NC(=O)C(c1cc(-c3ccc(Cl)cc3)ccc1Cl)=C2O
true (1)

Same again, this time with Cc1ccc(-c2ccc(F)c(F)c2)cc1C1=C(O)C2(CCCCC2)NC1=O
false (0)

Next compound up: CC1CCC2(CC1)NC(=O)C(c1cc(-c3ccc(Cl)cc3)ccc1Cl)=C2O (centres unmarked)
true (1)

What do you get for COC[C@H]1CC[C@]2(CC1)NC(=O)C(c1cc(-c3ccc(Cl)cc3)ccc1C)=C2O ?
true (1)

Next up: COC[C@H]1CC[C@]2(CC1)NC(=O)C(c1cc(-c3ccc(Cl)c(F)c3)ccc1Cl)=C2O
true (1)

Now consider Cc1ccc(-c2ccc(F)c(F)c2)cc1C1=C(O)[C@]2(CC[C@H](C)CC2)NC1=O .
false (0)

How about Cc1ccc(-c2ccc(Cl)cc2)c(C)c1C1=C(O)[C@]2(CC[C@](O)(C(F)(F)F)CC2)NC1=O ?
false (0)

What about CCCOC1CCC2(CC1)OC(=O)C(c1cc(-c3ccc(Cl)cc3)c(C)cc1C)=C2O (centres unmarked) ?
true (1)

Cool, now Cc1c(F)cc(-c2ccc(Cl)cc2)cc1C1=C(O)[C@]2(CC[C@H](C(F)(F)F)CC2)NC1=O
false (0)

Try this compound next: CO[C@H]1CC[C@]2(CC1)NC(=O)C(c1cc(-c3ccc(Cl)cc3)cc(F)c1C)=C2O
false (0)

Lookup Cc1ccc(-c2ccc(F)c(F)c2)cc1C1=C(O)[C@]2(CC[C@H](C(F)(F)F)CC2)NC1=O
true (1)

Also, CO[C@H]1CC[C@]2(CC1)NC(=O)C(c1cc(-c3ccc(F)c(F)c3)ccc1Cl)=C2O please.
false (0)

How about O=C1N[C@]2(CCC[C@H](C(F)(F)F)C2)C(O)=C1c1cc(-c2ccc(Cl)cc2)ccc1Cl ?
false (0)

What about this compound? COC[C@H]1CC[C@]2(CC1)NC(=O)C(c1cc(-c3ccc(Cl)c(F)c3)ccc1C)=C2O
true (1)

Next compound up: CO[C@H]1CC[C@]2(CC1)NC(=O)C(c1cc(-c3ccc(Cl)cc3)c(C)cc1C)=C2O
true (1)

// next record CCO[C@H]1CC[C@@]2(CC1)NC(=O)C(c1cc(-c3ccc(Cl)cc3)ccc1C)=C2O
true (1)

Thanks! And Cc1cc(C)c(-c2ccc(Cl)cc2)cc1C1=C(O)C2(CCC(C(F)(F)F)CC2)NC1=O (centres unmarked) ?
true (1)

Next entry: Cc1ccc(-c2ccc(Cl)c(F)c2)cc1C1=C(O)[C@]2(CC[C@H](C(F)(F)F)CC2)NC1=O
true (1)

O=C1N[C@]2(CC[C@@H](C(F)(F)F)CC2)C(O)=C1c1cc(-c2ccc(Cl)c(F)c2)ccc1Cl , same question.
true (1)

Would you kindly repeat that for CO[C@H]1CC[C@]2(CC1)NC(=O)C(c1cc(-c3ccc(Cl)cc3F)ccc1C)=C2O ?
true (1)

Also Cc1cc(C)c(-c2ccc(Cl)cc2)cc1C1=C(O)[C@]2(CC[C@H](C(F)(F)F)CC2)NC1=O ?
true (1)

Similarly, Cc1ccc(-c2ccc(Cl)cc2)cc1C1=C(O)[C@]2(CC[C@H](C(F)(F)F)CC2)NC1=O ?
true (1)

For Cc1ccc(-c2ccc(Cl)c(F)c2)cc1C1=C(O)[C@]2(CC[C@H](C)CC2)NC1=O then?
true (1)

// provenance: patent US20130040935A1
